# target: human Plasma Kallikrein (Homo sapiens (Human))
# measurement.description: In vitro enzyme inhibition of human plasma kallikrein (Pro-Phe-Arg-AMC cleavage)
# Assay type: biochemical
# measurement.parameters: human plasma kallikrein, PFR-AMC substrate, 37° C.; read-out: hPK IC50
reported.property: IC50

molecule=Cc1cc(N)nc(C)c1CNC(=O)c1nn(Cc2ccc3ncc(Cl)cc3c2)c2ccc(=O)[nH]c12 target="human Plasma Kallikrein (Homo sapiens (Human))" reported_property=IC50 recorded_result="< 100 nM"
molecule=Cc1cc(N)nc(C)c1CNC(=O)c1cnn(Cc2ccc3ncc(Cl)cc3c2)c1C#N target="human Plasma Kallikrein (Homo sapiens (Human))" reported_property=IC50 recorded_result="1000 to 10000 nM"
molecule=Cc1cc(N)nc(C)c1CNC(=O)c1oc(Cc2ccc3ncc(Cl)cc3c2)nc1C(F)(F)F target="human Plasma Kallikrein (Homo sapiens (Human))" reported_property=IC50 recorded_result="< 100 nM"
molecule=Cc1cc(N)nc(C)c1CNC(=O)c1nc(Cc2ccc3ncc(Cl)cc3c2)nn1C target="human Plasma Kallikrein (Homo sapiens (Human))" reported_property=IC50 recorded_result="< 100 nM"
molecule=Cc1cc(N)nc(C)c1CNC(=O)c1nn(Cc2ccc3ncc(Cl)cc3c2)cc1[N+](=O)[O-] target="human Plasma Kallikrein (Homo sapiens (Human))" reported_property=IC50 recorded_result="< 100 nM"
molecule=Cc1cc(N)nc(C)c1CNC(=O)c1cnc(Cc2ccc3ncc(Cl)cc3c2)n1C target="human Plasma Kallikrein (Homo sapiens (Human))" reported_property=IC50 recorded_result="1000 to 10000 nM"
molecule=Cc1nc(N)ccc1CNC(=O)c1cn(Cc2ccc3ncc(Cl)cc3c2)c2ccc(=O)[nH]c12 target="human Plasma Kallikrein (Homo sapiens (Human))" reported_property=IC50 recorded_result="< 100 nM"
molecule=Cc1cnc2c(C#N)cc(Cn3cc(C(=O)NCc4c(C)cc(N)nc4C)c(C#N)n3)cc2c1 target="human Plasma Kallikrein (Homo sapiens (Human))" reported_property=IC50 recorded_result="< 100 nM"
molecule=CC(=O)Nc1cn(Cc2ccc3ncc(Cl)cc3c2)nc1C(=O)NCc1c(C)cc(N)nc1C target="human Plasma Kallikrein (Homo sapiens (Human))" reported_property=IC50 recorded_result="< 100 nM"
molecule=Cc1cc(N)nc(C)c1CNC(=O)c1cn(Cc2ccc3ncc(Cl)cc3c2)c(N)n1 target="human Plasma Kallikrein (Homo sapiens (Human))" reported_property=IC50 recorded_result="< 100 nM"
molecule=Cc1cc(N)nc(C)c1CNC(=O)c1cc(C#N)n(Cc2ccc3ncc(Cl)cc3c2)n1 target="human Plasma Kallikrein (Homo sapiens (Human))" reported_property=IC50 recorded_result="100 to 1000 nM"
molecule=Cc1cc(N)nc(C)c1CNC(=O)c1cn(Cc2ccc3ncc(Cl)cc3c2)nc1CO target="human Plasma Kallikrein (Homo sapiens (Human))" reported_property=IC50 recorded_result="< 100 nM"
molecule=Cc1cc(N)nc(C)c1CNC(=O)c1cnc(Cc2ccc3ncc(Cl)cc3c2)o1 target="human Plasma Kallikrein (Homo sapiens (Human))" reported_property=IC50 recorded_result="< 100 nM"
molecule=Cc1cc(N)nc(C)c1CNC(=O)c1cn(Cc2ccc3ncc(Cl)cc3c2)cn1 target="human Plasma Kallikrein (Homo sapiens (Human))" reported_property=IC50 recorded_result="< 100 nM"
molecule=Cc1cc(N)nc(C)c1CNC(=O)c1c[nH]c(Cc2ccc3ncc(Cl)cc3c2)n1 target="human Plasma Kallikrein (Homo sapiens (Human))" reported_property=IC50 recorded_result="< 100 nM"
molecule=Cc1cc(N)nc(C)c1CNC(=O)c1cn(Cc2ccc3ncc(Cl)cc3c2)c2cnc(C#N)cc12 target="human Plasma Kallikrein (Homo sapiens (Human))" reported_property=IC50 recorded_result="< 100 nM"

###

Measured AUC accompanies every entry in the list below.
# measurement.description: Pharmacokinetic evaluation, oral exposure in rats
# Assay type: in vivo
# measurement.parameters: rat; male Sprague-Dawley rats, single oral dose 10 mg/kg via oral gavage, plasma; read-out: AUC
reported.property: AUC

molecule=Cc1cc(N)nc(C)c1CNC(=O)c1oc(Cc2ccc3ncc(Cl)cc3c2)nc1C(F)(F)F recorded_result="100 to 1000 ng·h/mL"
molecule=COc1cc2c(C(=O)NCc3c(C)cc(N)nc3C)nn(Cc3ccc4ncc(Cl)cc4c3)c2cn1 recorded_result="100 to 1000 ng·h/mL"
molecule=Cc1cc(N)nc(C)c1CNC(=O)c1cn(Cc2cc(F)c3ncc(Cl)cc3c2)nc1C#N recorded_result="100 to 1000 ng·h/mL"
molecule=Cc1cc(N)nc(C)c1CNC(=O)c1ccn(Cc2ccc3ncc(Cl)cc3c2)n1 recorded_result="100 to 1000 ng·h/mL"
molecule=Cc1cc(N)nc(C)c1CNC(=O)c1nnc(Cc2cc(F)c3ncc(Cl)cc3c2)o1 recorded_result="1000 to 10000 ng·h/mL"
molecule=Cc1cc(N)nc(C)c1CNC(=O)c1nc(Cc2ccc3ncc(Cl)cc3c2)n2ccccc12 recorded_result="100 to 1000 ng·h/mL"
molecule=Cc1cc(N)nc(C)c1CNC(=O)c1nn(Cc2ccc3ncc(Cl)cc3c2)c2ccccc12 recorded_result="100 to 1000 ng·h/mL"
molecule=Cc1cc(N)nc(C)c1CNC(=O)c1cn(Cc2ccc3ncc(Cl)cc3c2)c2cncc(C#N)c12 recorded_result="< 100 ng·h/mL"
molecule=Cc1cc(N)nc(C)c1CNC(=O)c1cn(Cc2ccc3ncc(Cl)cc3c2)nc1CN recorded_result="< 100 ng·h/mL"
molecule=Cc1cc(N)nc(C)c1CNC(=O)c1cn(Cc2ccc3ncc(Cl)cc3c2)nn1 recorded_result="1000 to 10000 ng·h/mL"
molecule=Cc1cnc2c(C#N)cc(Cn3cc(C(=O)NCc4c(C)cc(N)nc4C)c(C#N)n3)cc2c1 recorded_result="< 100 ng·h/mL"
molecule=Cc1nc(N)ccc1CNC(=O)c1cn(Cc2ccc3ncc(C(F)(F)F)cc3c2)nc1C#N recorded_result="1000 to 10000 ng·h/mL"
molecule=Cc1cc(N)nc(C)c1CNC(=O)c1noc(Cc2ccc3ncc(Cl)cc3c2)n1 recorded_result="1000 to 10000 ng·h/mL"
molecule=Cc1cc(N)nc(C)c1CNC(=O)c1nnc(Cc2ccc3ncc(Cl)cc3c2)o1 recorded_result="1000 to 10000 ng·h/mL"
molecule=Cc1nc(N)ccc1CNC(=O)c1cn(Cc2ccc3ncc(C4CC4)cc3c2)nc1C#N recorded_result="100 to 1000 ng·h/mL"
molecule=CC(C)(O)c1cc(Cn2cc(C(=O)NCc3ccc4c(N)nccc4c3)c(C#N)n2)cc2cc(Cl)cnc12 recorded_result="< 100 ng·h/mL"
molecule=Cc1cc(N)nc(C)c1CNC(=O)c1cn(Cc2ccc3ncc(Cl)cc3c2)nc1C recorded_result="1000 to 10000 ng·h/mL"

###

# target: human Plasma Kallikrein (Homo sapiens (Human), UniProt P03952)
# Sequence (P03952 391-638 limits assumed): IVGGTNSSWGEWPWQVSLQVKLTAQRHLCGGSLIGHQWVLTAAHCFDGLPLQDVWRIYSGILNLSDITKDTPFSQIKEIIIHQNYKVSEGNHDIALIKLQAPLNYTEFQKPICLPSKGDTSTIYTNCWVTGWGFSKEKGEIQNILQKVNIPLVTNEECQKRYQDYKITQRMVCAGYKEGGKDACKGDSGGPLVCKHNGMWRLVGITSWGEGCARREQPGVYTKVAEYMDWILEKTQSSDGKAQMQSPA
# Sequence (P03952 20-390 partner limits assumed): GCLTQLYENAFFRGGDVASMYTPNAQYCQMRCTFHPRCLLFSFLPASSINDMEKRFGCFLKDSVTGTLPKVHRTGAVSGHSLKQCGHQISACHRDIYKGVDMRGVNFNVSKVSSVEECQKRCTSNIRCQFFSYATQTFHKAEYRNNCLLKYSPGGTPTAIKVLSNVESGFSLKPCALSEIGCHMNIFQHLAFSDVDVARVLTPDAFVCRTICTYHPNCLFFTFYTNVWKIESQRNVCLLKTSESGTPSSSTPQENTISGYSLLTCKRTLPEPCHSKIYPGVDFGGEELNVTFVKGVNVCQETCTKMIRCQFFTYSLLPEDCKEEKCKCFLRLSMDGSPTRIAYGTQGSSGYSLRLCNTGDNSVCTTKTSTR
# measurement.description: In vitro enzyme inhibition of human plasma kallikrein (Pro-Phe-Arg-AMC cleavage)
# Assay type: biochemical
# measurement.parameters: human plasma kallikrein, PFR-AMC substrate, 37° C.; read-out: hPK IC50
reported.property: IC50

molecule=Cc1nc(N)ccc1CNC(=O)c1nnc(Cc2ccc3ncc(Cl)cc3c2)o1 reported_property=IC50 recorded_result="100 to 1000 nM"
molecule=Cc1cnc2c(C(C)(C)O)cc(Cn3ncc(C(=O)NCc4c(C)cc(N)nc4C)c3C#N)cc2c1 reported_property=IC50 recorded_result="1000 to 10000 nM"
molecule=Cc1cc(N)nc(C)c1CNC(=O)c1cnn(Cc2ccc3ncc(Cl)cc3c2)c1 reported_property=IC50 recorded_result="< 100 nM"
molecule=Cc1cc(N)nc(C)c1CNC(=O)c1cn(Cc2ccc3ncc(Cl)cc3c2)nc1C reported_property=IC50 recorded_result="< 100 nM"
molecule=Cc1cc(N)nc(C)c1CNC(=O)c1cnn(Cc2ccc3ncc(Cl)cc3c2)n1 reported_property=IC50 recorded_result="< 100 nM"
molecule=Cc1cc(N)nc(C)c1CNC(=O)c1nn(Cc2ccc3ncc(Cl)cc3c2)c2cnc(C#N)cc12 reported_property=IC50 recorded_result="< 100 nM"
molecule=Cc1cc(N)nc(C)c1CNC(=O)c1cn(Cc2cc(C(C)(C)O)c3ncc(Cl)cc3c2)nc1C#N reported_property=IC50 recorded_result="< 100 nM"
molecule=Cc1cc(N)nc(C)c1CNC(=O)c1nc(C#N)n(Cc2ccc3ncc(Cl)cc3c2)n1 reported_property=IC50 recorded_result="> 10000 nM"
molecule=Cc1cnc2c(C#N)cc(Cn3cc(C(=O)NCc4c(C)cc(N)nc4C)c(C(N)=O)n3)cc2c1 reported_property=IC50 recorded_result="100 to 1000 nM"
molecule=Cc1cc(N)nc(C)c1CNC(=O)c1nn(Cc2ccc3ncc(Cl)cc3c2)c2c[nH]c(=O)cc12 reported_property=IC50 recorded_result="100 to 1000 nM"
molecule=Cc1cc(N)nc(C)c1CNC(=O)c1cnc(Cc2ccc3ncc(Cl)cc3c2)[nH]1 reported_property=IC50 recorded_result="< 100 nM"
molecule=COc1nn(Cc2ccc3ncc(Cl)cc3c2)cc1C(=O)NCc1c(C)cc(N)nc1C reported_property=IC50 recorded_result="< 100 nM"
molecule=Cc1cc(N)nc(C)c1CNC(=O)c1c2c(N)cccc2nn1Cc1ccc2ncc(Cl)cc2c1 reported_property=IC50 recorded_result="> 10000 nM"
molecule=Cc1cc(N)nc(C)c1CNC(=O)c1cn(Cc2ccc3ncc(Cl)cc3c2)c2cc[nH]c(=O)c12 reported_property=IC50 recorded_result="> 10000 nM"
molecule=Cc1nc(N)ccc1CNC(=O)c1cnc(Cc2ccc3ncc(Cl)cc3c2)o1 reported_property=IC50 recorded_result="< 100 nM"
molecule=Cc1cnc2c(S(C)(=O)=O)cc(Cn3cc(C(=O)NCc4c(C)cc(N)nc4C)c(C#N)n3)cc2c1 reported_property=IC50 recorded_result="< 100 nM"

Values from patent US10301284B2
